Target: Bifunctional 3'-5' exonuclease/ATP-dependent helicase WRN [480-1251] (UniProt Q14191)
Construct: 480-1251
Sequence (Q14191 480-1251): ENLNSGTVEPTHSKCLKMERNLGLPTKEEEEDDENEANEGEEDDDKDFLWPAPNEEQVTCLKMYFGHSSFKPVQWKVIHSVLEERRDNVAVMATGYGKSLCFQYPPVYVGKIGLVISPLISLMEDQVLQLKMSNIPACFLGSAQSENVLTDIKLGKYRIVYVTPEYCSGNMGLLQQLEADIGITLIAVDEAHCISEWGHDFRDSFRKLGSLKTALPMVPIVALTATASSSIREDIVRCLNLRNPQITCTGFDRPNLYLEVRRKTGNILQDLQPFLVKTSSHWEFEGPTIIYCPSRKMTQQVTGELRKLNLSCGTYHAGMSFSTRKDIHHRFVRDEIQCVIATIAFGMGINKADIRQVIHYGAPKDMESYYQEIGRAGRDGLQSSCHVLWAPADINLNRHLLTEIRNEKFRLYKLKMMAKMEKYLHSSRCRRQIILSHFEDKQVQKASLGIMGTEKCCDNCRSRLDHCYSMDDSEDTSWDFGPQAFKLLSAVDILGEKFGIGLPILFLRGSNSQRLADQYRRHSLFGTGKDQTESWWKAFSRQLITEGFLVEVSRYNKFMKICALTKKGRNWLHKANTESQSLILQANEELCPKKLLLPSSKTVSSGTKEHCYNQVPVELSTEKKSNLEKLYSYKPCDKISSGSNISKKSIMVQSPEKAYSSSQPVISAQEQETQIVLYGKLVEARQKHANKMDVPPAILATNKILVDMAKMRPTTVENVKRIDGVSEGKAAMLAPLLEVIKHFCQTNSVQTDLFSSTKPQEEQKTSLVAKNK
Experiment: Biochemical Activity Assays
property label: IC50

CCc1c(N2CCN(C(=O)c3ncnc(C)c3O)CC2)c(=O)n2nc(-c3ccc4c(c3)oc(=O)n4C)nc2n1CC(=O)Nc1ccc(C(F)(F)F)cc1Cl | 24 nM
CCc1c(N2CCN(C(=O)c3ncnc(C)c3O)CC2)c(=O)n2nc(-c3ccn4nccc4c3F)nc2n1CC(=O)Nc1ccc(C(F)(F)F)cc1Cl | 19 nM
CCc1c(N2CCN(C(=O)c3ncnc(C)c3O)CC2)c(=O)n2nc(-c3ccc4c(c3)COC4)nc2n1CC(=O)Nc1c(Cl)cc(C(F)(F)F)c2ccoc12 | 38 nM
CCc1c(N2CCN(C(=O)c3ncnc(C)c3O)CC2)c(=O)n2nc(-c3cccc4c3OCCC4)nc2n1CC(=O)Nc1ccc(C(F)(F)F)cc1Cl | 34 nM

Name the value of IC50 reported for CCc1c(N2CCN(C(=O)c3ncnc(C)c3O)CC2)c(=O)n2nc(-c3cc4c(cc3F)[C@@H](OC)CC4)nc2n1CC(=O)Nc1ccc(C(F)(F)F)cc1Cl when tested on Bifunctional 3'-5' exonuclease/ATP-dependent helicase WRN [480-1251] (UniProt Q14191).
23 nM

* * *

Target: Bifunctional 3'-5' exonuclease/ATP-dependent helicase WRN (Homo sapiens, UniProt Q14191)
Sequence (Q14191 whole entry): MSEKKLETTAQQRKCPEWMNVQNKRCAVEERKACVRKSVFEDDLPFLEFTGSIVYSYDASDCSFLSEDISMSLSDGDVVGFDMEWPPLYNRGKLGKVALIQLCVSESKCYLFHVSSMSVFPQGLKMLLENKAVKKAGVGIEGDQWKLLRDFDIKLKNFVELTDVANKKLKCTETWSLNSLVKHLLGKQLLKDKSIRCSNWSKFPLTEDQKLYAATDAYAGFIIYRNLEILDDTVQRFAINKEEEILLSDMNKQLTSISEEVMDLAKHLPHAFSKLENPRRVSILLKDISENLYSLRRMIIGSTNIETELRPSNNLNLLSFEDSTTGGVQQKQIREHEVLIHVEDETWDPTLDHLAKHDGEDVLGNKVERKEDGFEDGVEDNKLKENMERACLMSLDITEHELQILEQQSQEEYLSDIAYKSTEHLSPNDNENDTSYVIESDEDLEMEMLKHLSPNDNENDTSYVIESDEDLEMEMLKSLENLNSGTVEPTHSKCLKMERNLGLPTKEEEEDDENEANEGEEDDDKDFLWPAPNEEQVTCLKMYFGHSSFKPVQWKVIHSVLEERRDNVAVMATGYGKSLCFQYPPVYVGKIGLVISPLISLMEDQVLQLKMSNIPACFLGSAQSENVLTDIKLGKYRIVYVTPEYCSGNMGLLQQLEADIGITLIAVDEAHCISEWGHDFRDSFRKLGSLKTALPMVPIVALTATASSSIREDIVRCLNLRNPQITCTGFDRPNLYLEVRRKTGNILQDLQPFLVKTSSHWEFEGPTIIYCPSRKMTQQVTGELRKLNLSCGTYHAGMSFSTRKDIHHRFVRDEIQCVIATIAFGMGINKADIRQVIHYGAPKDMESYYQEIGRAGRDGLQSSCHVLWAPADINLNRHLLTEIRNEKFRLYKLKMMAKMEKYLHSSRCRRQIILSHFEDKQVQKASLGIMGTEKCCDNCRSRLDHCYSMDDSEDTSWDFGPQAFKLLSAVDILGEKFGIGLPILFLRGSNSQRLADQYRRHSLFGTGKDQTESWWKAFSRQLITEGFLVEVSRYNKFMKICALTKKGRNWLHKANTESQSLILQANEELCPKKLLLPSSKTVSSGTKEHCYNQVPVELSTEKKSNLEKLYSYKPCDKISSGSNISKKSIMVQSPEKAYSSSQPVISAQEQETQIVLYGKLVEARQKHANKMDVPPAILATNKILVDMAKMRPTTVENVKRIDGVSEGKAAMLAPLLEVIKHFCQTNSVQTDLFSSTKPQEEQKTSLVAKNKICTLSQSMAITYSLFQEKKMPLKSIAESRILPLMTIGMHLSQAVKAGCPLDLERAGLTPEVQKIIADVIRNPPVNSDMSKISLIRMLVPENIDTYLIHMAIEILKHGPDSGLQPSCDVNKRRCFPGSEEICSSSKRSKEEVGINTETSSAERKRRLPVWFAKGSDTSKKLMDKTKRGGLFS
Assay: ADP-Glo Kinase Assay
yes (1) if IC50 is below 60 nM. no (0) if not; exact matches included in no (0).

CCc1c(N2CCN(S(C)(=O)=O)CC2)c(=O)n2nc(C3=CCOCC3)nc2n1CC(=O)Nc1ccc(C(F)(F)F)cc1Cl [WO2025049746, Example 59] | no (0)

In plain terms, does CCc1c(N2CCN(C(=O)c3nc4n(c(=O)c3O)CCC4)CC2)c(=O)n2nc(-c3ccc4c(c3)COC4)nc2n1CC(=O)Nc1ccc(C(F)(F)F)cc1Cl [WO2025049746, Example 422] come in under 60 nM for IC50?
yes (1)

In plain terms, does CCc1c(N2CCN(C(=O)c3ncnc(C)c3O)CC2)c(=O)n2nc(-c3ccc4c(c3)c(C)nn4C)nc2n1CC(=O)Nc1ccc(C(F)(F)F)cc1Cl [WO2025049746, Example 312] come in under 60 nM for IC50?
yes (1)

In plain terms, does CCc1c(N2CCN(C(=O)c3ncnc(C)c3O)CC2)c(=O)n2nc(C3=CCOCC3)nc2n1CC(=O)Nc1ccc(OC(F)F)cc1F [WO2025049746, Example 369] come in under 60 nM for IC50?
no (0)

In plain terms, does CCc1c(N2CCN(C(=O)c3ncnc(C)c3O)CC2)c(=O)n2nc(-c3cc4c(cc3C)C(C)(C)OC4)nc2n1CC(=O)Nc1ccc(C(F)(F)F)cc1Cl [WO2025049746, Example 213] come in under 60 nM for IC50?
no (0)

In plain terms, does CCc1c(N2CCN(C(=O)c3ncnc(C)c3O)CC2)c(=O)n2nc(-c3cccc4oc(C)nc34)nc2n1CC(=O)Nc1ccc(C(F)(F)F)cc1Cl [WO2025049746, Example 155] come in under 60 nM for IC50?
no (0)

In plain terms, does CCc1c(N2CCN(C(=O)c3ncnc(C)c3O)CC2)c(=O)n2nc(-c3ccn4ncc(F)c4c3)nc2n1CC(=O)Nc1ccc(C(F)(F)F)cc1Cl [WO2025049746, Example 326] come in under 60 nM for IC50?
yes (1)

In plain terms, does CCc1c(N2CCN(C(=O)c3ncnc(C)c3O)CC2)c(=O)n2nc(C3=CCOCC3)nc2n1CC(=O)NC12CC(C3CCC3)(C1)C2 [WO2025049746, Example 352] come in under 60 nM for IC50?
no (0)

In plain terms, does CCc1c(N2CCN(C(=O)c3ncnc(C)c3O)CC2)c(=O)n2nc(-c3ccc4ncn(C)c(=O)c4c3)nc2n1CC(=O)Nc1ccc(C(F)(F)F)cc1Cl [WO2025049746, Example 259] come in under 60 nM for IC50?
yes (1)

In plain terms, does CCc1c(N2CCN(C(=O)c3ncnc(C)c3O)CC2)c(=O)n2nc(-c3ccc4c(c3)CC[C@@H]4OC)nc2n1CC(=O)Nc1ccc(C(F)(F)F)cc1Cl [WO2025049746, Example 207] come in under 60 nM for IC50?
yes (1)
